Test system: Vesicular stomatitis
Assay: microbe, parasite or virus in culture
Assay type: cell-based
Details: PRK, read-out: MIC50
Readout kind: EC50 (µg/mL)
// note: answer is a bare numeric in µg/mL

**Query** Dear colleague, please send me the reported EC50 for CCOC(=O)[C@@H](O)Cn1cnc2c(N)ncnc21 [C2 H5 (S)] when you can.
**Result** 1.5

**Query** Supply measured EC50 of COC(=O)C(O)Cn1cnc2c(N)ncnc21 (racemic) [Compound 1] in your reply.
**Result** 3

**Query** Recall and state the measured EC50 for COC(=O)[C@H](O)Cn1cnc2c(N)ncnc21 [CH3 (R)] .
**Result** 1.5

**Query** Give reported EC50 value for COC(=O)[C@@H](O)Cn1cnc2c(N)ncnc21 [CH3 (S)]
**Result** 7

**Query** Fill in reported EC50 for this entry: Nc1ncnc2c1ncn2C[C@H](O)CO [(S)--DHPA, 9-(2,3-dihydroxypropyl)adenine, reference compound]
**Result** 30
